Taken from the FLAb antibody collection (doi:10.7554/elife.23156).

B1: scFv; the commonest letter at each place (parent)
chain 1: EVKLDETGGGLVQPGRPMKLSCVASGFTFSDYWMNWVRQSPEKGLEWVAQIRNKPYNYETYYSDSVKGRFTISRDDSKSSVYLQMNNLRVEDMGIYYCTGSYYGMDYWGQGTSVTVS
chain 2: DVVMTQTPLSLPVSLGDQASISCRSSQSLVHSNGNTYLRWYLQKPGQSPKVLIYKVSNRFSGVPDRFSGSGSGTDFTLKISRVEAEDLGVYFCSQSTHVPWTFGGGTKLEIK

# Variants of: B1
# Experiment description: Kd (Tite-Seq)
# Study conditions: with fluorescein; format: scFv 4-4-20, heavy + light
Assay metric: Kd

chain 1 T28K has a reported Kd of 0.000988 µM

chain 1 T28C S30I has a reported Kd of 0.424 µM

chain 1 G100T Y102N has a reported Kd of ≥ 10 µM

chain 1 Y103Q D106M has a reported Kd of ≥ 10 µM

chain 1 Y32A V37Y has a reported Kd of 0.205 µM

chain 1 S30D N35Q has a reported Kd of ≥ 10 µM

chain 1 D106L W108R G109Y has a reported Kd of ≥ 10 µM

chain 1 S30I D31H W33C has a reported Kd of ≥ 10 µM

chain 1 Y107I W108S has a reported Kd of ≥ 10 µM

chain 1 S30H N35D has a reported Kd of ≥ 10 µM

chain 1 S30L W33D has a reported Kd of ≥ 10 µM

chain 1 G104N Y107A has a reported Kd of ≥ 10 µM

chain 1 S101V D106I Y107C has a reported Kd of ≥ 10 µM

chain 1 G100C W108T has a reported Kd of 0.000846 µM

chain 1 F29Y N35A has a reported Kd of ≥ 10 µM

chain 1 T28C has a reported Kd of 0.00179 µM

chain 1 M105Q Y107E W108T has a reported Kd of 0.0162 µM

chain 1 M105H W108D has a reported Kd of ≥ 10 µM

chain 1 G100N M105Y has a reported Kd of ≥ 10 µM

chain 1 S101C Y103V D106I has a reported Kd of ≥ 10 µM

chain 1 Y102M Y107S has a reported Kd of ≥ 10 µM

chain 1 S101C Y103L has a reported Kd of ≥ 10 µM

chain 1 T28D V37Q has a reported Kd of 0.000804 µM

chain 1 N35K V37M has a reported Kd of ≥ 10 µM

chain 1 S30F has a reported Kd of 0.00205 µM

chain 1 G100T G109K has a reported Kd of ≥ 10 µM

chain 1 G100R S101I has a reported Kd of ≥ 10 µM

chain 1 G100M S101I G104T has a reported Kd of ≥ 10 µM

chain 1 G100L G109S has a reported Kd of 9.5 µM

chain 1 Y102D W108M has a reported Kd of 0.000604 µM

chain 1 Y102L M105I has a reported Kd of ≥ 10 µM

chain 1 S101F G104I has a reported Kd of ≥ 10 µM

chain 1 G100M G104P D106I has a reported Kd of ≥ 10 µM

chain 1 D31G V37N has a reported Kd of 0.00785 µM

chain 1 W36D has a reported Kd of ≥ 10 µM

chain 1 G104I W108D has a reported Kd of ≥ 10 µM

chain 1 W36P V37Y has a reported Kd of ≥ 10 µM

chain 1 Y102C has a reported Kd of 0.00334 µM

chain 1 M34I W36F has a reported Kd of 0.0107 µM

chain 1 G100Y has a reported Kd of ≥ 10 µM

chain 1 S30T W33V has a reported Kd of ≥ 10 µM

chain 1 M34R V37Q has a reported Kd of 0.205 µM

chain 1 M34V V37D has a reported Kd of 3.74 µM

chain 1 Y102I W108N has a reported Kd of ≥ 10 µM

chain 1 D106K W108G has a reported Kd of ≥ 10 µM

chain 1 T28V has a reported Kd of 0.00128 µM
